molecular target: Caspase-6 (Homo sapiens, UniProt P55212); test: Inhibition of human recombinant caspase 6 assessed as accumulation of 7-amino-4-methylcoumarin substrate
Sequence (P55212 24-179 limits assumed): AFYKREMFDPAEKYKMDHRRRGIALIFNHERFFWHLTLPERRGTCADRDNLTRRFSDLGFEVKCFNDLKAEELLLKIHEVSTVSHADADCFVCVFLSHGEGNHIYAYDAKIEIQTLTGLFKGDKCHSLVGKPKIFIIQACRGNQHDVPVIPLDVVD
Sequence (P55212 194-293 limits assumed): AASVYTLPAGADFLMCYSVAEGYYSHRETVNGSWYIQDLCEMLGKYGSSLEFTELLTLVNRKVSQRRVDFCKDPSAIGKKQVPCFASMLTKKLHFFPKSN

{"columns": ["smiles-string", "EC50"],
 "data": [
  ["O=C1C(=O)N(Cc2ccc(F)cc2)c2ccc(S(=O)(=O)N3CCC[C@H]3COCc3cn(CCF)nn3)cc21", "> 5 µM"]
]}

###

experiment: Lipophilicity, log P of the compound; type: physicochemical; conditions: octanol/water

{"columns": ["smiles-string", "logP"],
 "data": [
  ["O=C1C(=O)N(Cc2cn(CCF)nn2)c2ccc(S(=O)(=O)N3CCC[C@H]3COc3ccc(F)cc3F)cc21", 1.61]
]}

###

target: Caspase-8 (Homo sapiens, UniProt Q14790); test: Inhibition of human recombinant caspase 8 assessed as accumulation of 7-amino-4-methylcoumarin substrate
Sequence (Q14790 217-374 limits assumed): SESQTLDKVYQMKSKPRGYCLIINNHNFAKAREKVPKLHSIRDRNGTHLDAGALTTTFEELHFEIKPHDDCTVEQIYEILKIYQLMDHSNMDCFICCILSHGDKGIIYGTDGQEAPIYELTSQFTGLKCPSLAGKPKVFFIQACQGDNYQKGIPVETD
Sequence (Q14790 385-479 limits assumed): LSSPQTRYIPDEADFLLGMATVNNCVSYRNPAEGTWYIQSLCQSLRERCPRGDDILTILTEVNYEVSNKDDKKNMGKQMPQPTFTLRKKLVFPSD
pEC50: −log10 of the molar value.
readout-name: pEC50

{"columns": ["smiles-string", "readout-name", "result"],
 "data": [
  ["O=C1C(=O)N(Cc2ccc(F)cc2)c2ccc(S(=O)(=O)N3CCC[C@H]3COCc3cn(CCF)nn3)cc21", "pEC50", "< 5.30"]
]}

###

biological target: Caspase-7 (Homo sapiens, UniProt P55210); test: Inhibition of human recombinant caspase 7 assessed as accumulation of 7-amino-4-methylcoumarin substrate
Sequence (P55210 24-198 limits assumed): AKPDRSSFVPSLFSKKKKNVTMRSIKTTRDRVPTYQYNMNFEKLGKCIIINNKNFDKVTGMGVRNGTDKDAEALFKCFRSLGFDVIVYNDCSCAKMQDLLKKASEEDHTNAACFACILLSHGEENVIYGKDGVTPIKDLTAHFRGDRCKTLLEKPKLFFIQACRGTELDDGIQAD
Sequence (P55210 207-303 limits assumed): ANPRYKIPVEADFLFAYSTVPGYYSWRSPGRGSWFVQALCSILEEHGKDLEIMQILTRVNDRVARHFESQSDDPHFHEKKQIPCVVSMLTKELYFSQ

{"columns": ["smiles-string", "EC50"],
 "data": [
  ["O=C1C(=O)N(Cc2ccc(F)cc2)c2ccc(S(=O)(=O)N3CCC[C@H]3COCc3cn(CCF)nn3)cc21", "18.3 nM"]
]}

###

List of EC50 values.
target: Caspase-3 (Homo sapiens, UniProt P42574); assay: Inhibition of human recombinant caspase 3 assessed as accumulation of 7-amino-4-methylcoumarin substrate
Sequence (P42574 29-175 limits assumed): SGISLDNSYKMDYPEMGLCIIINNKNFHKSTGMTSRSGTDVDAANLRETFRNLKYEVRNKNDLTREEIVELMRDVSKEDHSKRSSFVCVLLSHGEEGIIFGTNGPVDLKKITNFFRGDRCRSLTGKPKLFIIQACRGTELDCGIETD
Sequence (P42574 176-277 limits assumed): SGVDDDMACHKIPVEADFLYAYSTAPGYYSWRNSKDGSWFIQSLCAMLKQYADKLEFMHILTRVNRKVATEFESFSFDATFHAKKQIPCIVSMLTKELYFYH
readout-name: EC50 (nM)

{"columns": ["smiles-string", "experimental-system", "readout-name", "readout-units", "result-number"],
 "data": [
  ["O=C1C(=O)N(Cc2ccc(F)cc2)c2ccc(S(=O)(=O)N3CCC[C@H]3COc3ccccc3)cc21", "Caspase-3 (Homo sapiens, UniProt P42574)", "EC50", "nM", 50.5],
  ["O=C1C(=O)N(Cc2ccc(F)cc2)c2ccc(S(=O)(=O)N3CCC[C@H]3COC3CCOCC3)cc21", "Caspase-3 (Homo sapiens, UniProt P42574)", "EC50", "nM", 10.7],
  ["O=C1C(=O)N(Cc2ccc(F)cc2)c2ccc(S(=O)(=O)N3CCC[C@H]3COCc3cn(CCF)nn3)cc21", "Caspase-3 (Homo sapiens, UniProt P42574)", "EC50", "nM", 12.6]
]}

###

experiment: Chemical stability assessed as half life; assay type: physicochemical

{"columns": ["smiles-string", "half-life"],
 "data": [
  ["O=C1C(=O)N(Cc2ccc([125I])cc2)c2ccc(S(=O)(=O)N3CCC[C@H]3COc3ccccc3)cc21", "59.9 days"]
]}

###

Molecular target: Caspase-1 (Homo sapiens, UniProt P29466)
Sequence (P29466 whole entry): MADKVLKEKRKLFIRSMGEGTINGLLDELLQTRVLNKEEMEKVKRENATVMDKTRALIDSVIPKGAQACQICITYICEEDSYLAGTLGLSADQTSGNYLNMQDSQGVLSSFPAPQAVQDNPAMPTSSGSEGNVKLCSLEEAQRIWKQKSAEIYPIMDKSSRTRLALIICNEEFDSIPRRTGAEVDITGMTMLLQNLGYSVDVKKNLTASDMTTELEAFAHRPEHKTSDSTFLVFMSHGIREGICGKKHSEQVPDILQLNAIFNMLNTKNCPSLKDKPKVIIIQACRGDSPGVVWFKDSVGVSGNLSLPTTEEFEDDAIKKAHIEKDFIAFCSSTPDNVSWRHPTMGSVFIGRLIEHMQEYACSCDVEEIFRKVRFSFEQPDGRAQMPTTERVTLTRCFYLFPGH
Test: Inhibition of human recombinant caspase 1 assessed as accumulation of 7-amino-4-methylcoumarin substrate
pEC50: −log10 of the molar value.
readout-name: pEC50

{"columns": ["smiles-string", "experimental-system", "result"],
 "data": [
  ["O=C1C(=O)N(Cc2ccc(F)cc2)c2ccc(S(=O)(=O)N3CCC[C@H]3COCc3cn(CCF)nn3)cc21", "Caspase-1 (Homo sapiens, UniProt P29466)", "< 5.30"]
]}
